Biological target: amylin receptor (RNA membranes)
Experiment: displacement of 125I-rat amylin from RNA membranes
pIC50: −log10 of the molar value. Numbered stars: 1 amine (or outer) side, 2 acyl side, 3 side chain; on linkers, the order of the positions; unused ones are H or OH. Side chains are listed from the residue outwards. Ends that are not written are not given here. γGlu = O=C(O)[C@H](CCC(=O)[*:2])N[*:1]
measurementLabel: pIC50

- binder: "KCNTATCALQK([γGlu-C16‑Chain])LAQELHRLQTYPRTNVGSNTY-NH2 (ends and bridges not checked) [Cmpd 193 ([K^11ε(γ-Glu(Nα-C16-Chain))]-Cmpd 17)]"
  pIC50: 9.14

A. KCNTATCALQRLAQELHK([γGlu-C16‑Chain])LQTYPRTNVGSNTY-NH2 (ends and bridges not checked) [Cmpd 186 ([K^18ε-(γ-Glu(Nα-C16-Chain))]-Cmpd 17)]
B. KCNTATCALQRLAQELHRLQTYPK([γGlu-C16‑Chain])TNVGSNTY-NH2 (ends and bridges not checked) [Cmpd 188 ([K^24ε-(γ-Glu(Nα-C16-Chain))]-Cmpd 17)]
Query: // compare: A vs B , metric pIC50, want the smaller Field: selected label. Fill in the label of the entry you choose.
Reply: B

Measured values drawn from patent US20140249076A1 for this set.
